Study the reported pKi values for 5-hydroxytryptamine receptor 6 (Homo sapiens, UniProt P50406) given below; they originate from different publications.
Please keep in mind that pKi is minus log10 of the molar concentration; only the number is needed.

Below are worked cases with known answers.
[
  {
    "Molecule": "O=C1c2ccccc2S(=O)(=O)N1CCCCCCN1CCN(c2ccc(Cl)c(Cl)c2)CC1",
    "pKi": 6.88
  },
  {
    "Molecule": "O=C1CCc2ccc(OCCCCNCCc3cn(Cc4ccccc4)c4ccccc34)cc2N1",
    "pKi": 6.82
  }
]

Q: Field request: pKi | item: COc1ccc2[nH]cc(C3CC(=O)N(CCCCN4CCC(c5c[nH]c6ccccc56)CC4)C3=O)c2c1 (stereo not drawn)
Result: 7.09
